Biological target: mouse TMEM16A mutant V543A (Mus musculus, UniProt Q8BHY3, V543A)
Construct: expressed in transfected cells; host or cells: HEK293T
Sequence (Q8BHY3 whole entry V543A): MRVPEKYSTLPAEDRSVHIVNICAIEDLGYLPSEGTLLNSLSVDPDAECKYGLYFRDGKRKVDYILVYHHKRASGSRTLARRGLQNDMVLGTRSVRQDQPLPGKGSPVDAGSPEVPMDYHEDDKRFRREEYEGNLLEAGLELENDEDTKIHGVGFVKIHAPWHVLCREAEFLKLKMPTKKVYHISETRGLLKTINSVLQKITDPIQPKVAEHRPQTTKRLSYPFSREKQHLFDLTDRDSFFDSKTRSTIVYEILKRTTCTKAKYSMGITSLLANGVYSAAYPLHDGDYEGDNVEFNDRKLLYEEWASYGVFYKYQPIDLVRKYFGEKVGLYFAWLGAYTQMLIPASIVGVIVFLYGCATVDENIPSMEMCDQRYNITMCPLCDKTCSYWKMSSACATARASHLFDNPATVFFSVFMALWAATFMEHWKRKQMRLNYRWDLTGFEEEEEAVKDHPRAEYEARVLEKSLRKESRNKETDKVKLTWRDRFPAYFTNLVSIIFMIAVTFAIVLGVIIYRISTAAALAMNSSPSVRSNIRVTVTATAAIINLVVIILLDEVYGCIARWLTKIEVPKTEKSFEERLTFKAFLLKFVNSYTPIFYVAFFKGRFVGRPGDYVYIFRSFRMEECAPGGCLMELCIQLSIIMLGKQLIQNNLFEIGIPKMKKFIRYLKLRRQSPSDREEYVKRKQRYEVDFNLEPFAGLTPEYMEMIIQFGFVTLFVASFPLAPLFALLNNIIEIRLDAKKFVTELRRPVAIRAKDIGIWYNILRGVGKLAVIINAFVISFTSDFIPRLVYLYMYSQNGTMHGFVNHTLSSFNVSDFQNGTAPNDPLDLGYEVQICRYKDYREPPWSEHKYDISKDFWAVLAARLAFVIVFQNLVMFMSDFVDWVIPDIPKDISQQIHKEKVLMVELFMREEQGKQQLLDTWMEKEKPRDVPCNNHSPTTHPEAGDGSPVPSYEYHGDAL
Assay: Inside-out patch recording of 1PBC block, mutant V543A
Type: cell-based
Details: V543A; V 60 mV
READOUT TYPE: IC50
Quick note: number first, unit second.

Request: // returns reported IC50 for input N#Cc1c(C(F)(F)F)cc(O)n2c1nc1ccccc12
Result: 8.16 µM

====

Molecular target: mouse TMEM16A mutant P595A (Mus musculus, UniProt Q8BHY3, P595A)
Construct: expressed in transfected cells; host or cells: HEK293T
Sequence (Q8BHY3 whole entry P595A): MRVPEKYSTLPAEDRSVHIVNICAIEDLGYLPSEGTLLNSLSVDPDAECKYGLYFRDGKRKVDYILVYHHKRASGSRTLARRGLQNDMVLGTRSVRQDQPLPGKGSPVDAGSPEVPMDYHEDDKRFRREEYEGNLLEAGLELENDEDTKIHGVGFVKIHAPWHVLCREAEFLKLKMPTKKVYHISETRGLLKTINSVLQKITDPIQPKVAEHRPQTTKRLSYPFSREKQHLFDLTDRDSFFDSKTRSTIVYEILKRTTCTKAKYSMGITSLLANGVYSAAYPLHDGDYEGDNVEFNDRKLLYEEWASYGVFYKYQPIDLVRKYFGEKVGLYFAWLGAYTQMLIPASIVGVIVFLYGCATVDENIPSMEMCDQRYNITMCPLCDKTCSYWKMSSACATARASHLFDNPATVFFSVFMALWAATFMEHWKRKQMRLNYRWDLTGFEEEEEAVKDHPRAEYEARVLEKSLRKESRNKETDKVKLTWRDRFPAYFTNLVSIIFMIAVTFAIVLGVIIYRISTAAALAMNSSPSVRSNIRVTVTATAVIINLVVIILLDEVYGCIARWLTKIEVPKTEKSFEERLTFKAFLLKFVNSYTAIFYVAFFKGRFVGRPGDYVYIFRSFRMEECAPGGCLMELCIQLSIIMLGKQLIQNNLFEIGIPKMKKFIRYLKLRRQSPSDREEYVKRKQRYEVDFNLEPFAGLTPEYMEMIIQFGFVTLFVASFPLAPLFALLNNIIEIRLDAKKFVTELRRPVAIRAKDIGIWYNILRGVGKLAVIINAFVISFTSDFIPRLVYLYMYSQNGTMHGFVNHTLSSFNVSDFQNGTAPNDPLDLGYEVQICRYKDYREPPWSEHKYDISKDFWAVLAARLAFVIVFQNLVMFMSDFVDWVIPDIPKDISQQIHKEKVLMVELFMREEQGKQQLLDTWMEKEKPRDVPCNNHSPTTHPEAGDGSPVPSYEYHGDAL
Experiment: Inside-out patch recording of 1PBC block, mutant P595A
Format: cell-based
Settings: P595A; V -60 mV
READOUT TYPE: IC50 (µM)
Write it as a number; the unit µM goes unstated.

Request: // returns reported IC50 for input N#Cc1c(C(F)(F)F)cc(O)n2c1nc1ccccc12
Result: 5.83

====

Molecular target: mouse TMEM16A mutant V511A (Mus musculus, UniProt Q8BHY3, V511A)
Construct: expressed in transfected cells; host or cells: HEK293T
Sequence (Q8BHY3 whole entry V511A): as the sequence (Q8BHY3 whole entry P595A) above, with V511A, A595P counted along it
Experiment: Inside-out patch recording of 1PBC block, mutant V511A
Format: cell-based
Details: 0 mV; 2 µM Ca2+
READOUT TYPE: pIC50
Scale explanation: pIC50 corresponds to minus log10 of a concentration expressed in moles per litre.

Request: // returns reported pIC50 for input N#Cc1c(C(F)(F)F)cc(O)n2c1nc1ccccc12
Result: 4.68

====

Target: mouse TMEM16A mutant Q637A (Mus musculus, UniProt Q8BHY3, Q637A)
Construct: expressed in transfected cells; host or cells: HEK293T
Sequence (Q8BHY3 whole entry Q637A): as the sequence (Q8BHY3 whole entry P595A) above, with A595P, Q637A counted along it
Experiment: Inside-out patch recording of 1PBC block, mutant Q637A
Format: cell-based
Conditions: 120 mV; 2 µM Ca2+
READOUT TYPE: IC50 (nM)
Write it as a number; the unit nM goes unstated.

Request: // returns reported IC50 for input N#Cc1c(C(F)(F)F)cc(O)n2c1nc1ccccc12
Result: 985

====

Target: mouse TMEM16A mutant V599A (Mus musculus, UniProt Q8BHY3, V599A)
Construct: expressed in transfected cells; host or cells: HEK293T
Sequence (Q8BHY3 whole entry V599A): as the sequence (Q8BHY3 whole entry P595A) above, with A595P, V599A counted along it
Assay: Inside-out patch recording of 1PBC block, mutant V599A
Assay type: cell-based
Settings: V599A; V -20 mV
READOUT TYPE: pIC50
Scale explanation: pIC50 corresponds to minus log10 of a concentration expressed in moles per litre.

Request: # get_value(readout= pIC50, system= mouse TMEM16A mutant V599A (Mus musculus, UniProt Q8BHY3, V599A)) for N#Cc1c(C(F)(F)F)cc(O)n2c1nc1ccccc12 [1PBC]
Result: 4.10

====

Target: mouse TMEM16A mutant T518A (Mus musculus, UniProt Q8BHY3, T518A)
Construct: expressed in transfected cells; host or cells: HEK293T
Sequence (Q8BHY3 whole entry T518A): as the sequence (Q8BHY3 whole entry V543A) above, with T518A, A543V counted along it
Assay: Inside-out patch recording of 1PBC block, mutant T518A
Assay type: cell-based
Conditions: 40 mV; 2 µM Ca2+
READOUT TYPE: IC50 (µM)
Write it as a number; the unit µM goes unstated.

Request: // returns reported IC50 for input N#Cc1c(C(F)(F)F)cc(O)n2c1nc1ccccc12 [1PBC]
Result: 3.5

====

Target: mouse TMEM16A mutant I636A (Mus musculus, UniProt Q8BHY3, I636A)
Construct: expressed in transfected cells; host or cells: HEK293T
Sequence (Q8BHY3 whole entry I636A): as the sequence (Q8BHY3 whole entry P595A) above, with A595P, I636A counted along it
Assay: Inside-out patch recording of 1PBC block, mutant I636A
Format: cell-based
Conditions: -140 mV; 15 µM Ca2+
READOUT TYPE: IC50 (µM)
Write it as a number; the unit µM goes unstated.

Request: // returns reported IC50 for input N#Cc1c(C(F)(F)F)cc(O)n2c1nc1ccccc12 [1PBC]
Result: 27.8
